assay-explanation: Dissociation constant, pKa corresponding to deprotonation of the basic substituent by spectrophotometric titration
Type: physicochemical
endpoint-label: pKa

molecule: Cc1c(O)c(=O)ccn1CCCn1ccnc1
val: 6.71

molecule: Cc1cc(=O)c(O)c(CN2CCCCC2)n1C
val: 6.98

molecule: Cn1c(CO)cc(=O)c(O)c1CN1CCOCC1
val: 4.99

molecule: Cn1cc(O)c(=O)cc1CN1CCCCC1
val: 6.72

molecule: CCc1c(O)c(=O)ccn1CCN1CCCCC1
val: 7.38

molecule: O=c1cc(CN2CCCCC2)n(CCN2CCCCC2)cc1O
val: 7.6

molecule: CC(O)c1c(O)c(=O)ccn1CCN1CCCCC1 (stereo unspecified)
val: 7.35

molecule: Cc1c(O)c(=O)ccn1CCN1CCOCC1
val: 4.91

molecule: O=c1ccn(CCN2CCCCC2)c(CO)c1O
val: 7.43

molecule: Cc1c(O)c(=O)ccn1CCN1CCCCC1
val: 7.47

molecule: CCc1c(O)c(=O)ccn1CCN(C)C
val: 7.16

molecule: Cc1cc(=O)c(O)c(CN2CCOCC2)n1C
val: 4.82

molecule: Cc1c(O)c(=O)ccn1CCN(C)C
val: 7.02

molecule: Cn1c(CO)cc(=O)c(O)c1CN1CCCCC1
val: 6.67

molecule: CCc1c(O)c(=O)ccn1CCCn1ccnc1
val: 6.47

molecule: CCN(CC)CCn1ccc(=O)c(O)c1C
val: 7.5

* * *

Property: pKa; scope: individual molecules
assay-explanation: Dissociation constant, pKa corresponding to dissociation of the 3-hydroxyl group by potentiometric titration
Type: physicochemical

molecule: CCN(CC)CCn1ccc(=O)c(O)c1C
pKa: 9.65

molecule: CCc1c(O)c(=O)ccn1CCCn1ccnc1
pKa: 9.71

molecule: Cc1cc(=O)c(O)c(CN2CCOCC2)n1C
pKa: 10.1

molecule: Cn1cc(O)c(=O)cc1CN1CCCCC1
pKa: 8.85

molecule: CCc1c(O)c(=O)ccn1CCN1CCCCC1
pKa: 9.67

molecule: Cc1c(O)c(=O)ccn1CCCn1ccnc1
pKa: 9.92

molecule: CCc1c(O)c(=O)ccn1CCN(C)C
pKa: 9.66

molecule: Cn1c(CO)cc(=O)c(O)c1CN1CCCCC1
pKa: 10.5

molecule: Cn1c(CO)cc(=O)c(O)c1CN1CCOCC1
pKa: 9.77

molecule: O=c1cc(CN2CCCCC2)n(CCN2CCCCC2)cc1O
pKa: 8.83

molecule: Cc1cc(=O)c(O)c(CN2CCCCC2)n1C
pKa: 10.8

molecule: CC(O)c1c(O)c(=O)ccn1CCN1CCCCC1 (stereo unspecified)
pKa: 8.7

molecule: Cc1c(O)c(=O)ccn1CCN1CCOCC1
pKa: 9.71

molecule: O=c1ccn(CCN2CCCCC2)c(CO)c1O
pKa: 9.28

molecule: Cc1c(O)c(=O)ccn1CCN1CCCCC1
pKa: 9.63

molecule: Cc1c(O)c(=O)ccn1CCN(C)C
pKa: 9.75

* * *

assay-explanation: Dissociation constant, pKa corresponding to protonation of the 4-hydroxy group by potentiometric titration
Format: physicochemical
Property: pKa; scope: individual compounds
endpoint-label: pKa

compound: Cn1cc(O)c(=O)cc1CN1CCCCC1
endpoint-label: pKa
val: 2.15
--
compound: Cc1c(O)c(=O)ccn1CCN1CCCCC1
endpoint-label: pKa
val: 2.77
--
compound: Cc1cc(=O)c(O)c(CN2CCOCC2)n1C
endpoint-label: pKa
val: 2.38
--
compound: Cc1c(O)c(=O)ccn1CCN1CCOCC1
endpoint-label: pKa
val: 2.67
--
compound: CC(O)c1c(O)c(=O)ccn1CCN1CCCCC1 (stereo unspecified)
endpoint-label: pKa
val: 2.17
--
compound: CCc1c(O)c(=O)ccn1CCCn1ccnc1
endpoint-label: pKa
val: 3.09
--
compound: CCc1c(O)c(=O)ccn1CCN(C)C
endpoint-label: pKa
val: 2.62
--
compound: O=c1ccn(CCN2CCCCC2)c(CO)c1O
endpoint-label: pKa
val: 2.25
--
compound: Cc1cc(=O)c(O)c(CN2CCCCC2)n1C
endpoint-label: pKa
val: 2.5
--
compound: O=c1cc(CN2CCCCC2)n(CCN2CCCCC2)cc1O
endpoint-label: pKa
val: 1.16
--
compound: CCc1c(O)c(=O)ccn1CCN1CCCCC1
endpoint-label: pKa
val: 2.73
--
compound: Cn1c(CO)cc(=O)c(O)c1CN1CCOCC1
endpoint-label: pKa
val: 1.98
--
compound: Cc1c(O)c(=O)ccn1CCCn1ccnc1
endpoint-label: pKa
val: 3.13
--
compound: Cn1c(CO)cc(=O)c(O)c1CN1CCCCC1
endpoint-label: pKa
val: 2.14
--
compound: Cc1c(O)c(=O)ccn1CCN(C)C
endpoint-label: pKa
val: 2.74
--
compound: CCN(CC)CCn1ccc(=O)c(O)c1C
endpoint-label: pKa
val: 2.63

* * *

assay-explanation: Partition coefficient, log P of the compound
Type: physicochemical
run-conditions: octanol/water
Friendly reminder: logP below 0.02 is Yes, at or above is No.

molecule: CCn1ccc(=O)c(O)c1C(C)O (centres undefined)
assigned-label: Yes
--
molecule: O=c1ccn(CCN2CCCCC2)c(CO)c1O
assigned-label: Yes
--
molecule: Cn1cc(O)c(=O)cc1CN1CCCCC1
assigned-label: No
--
molecule: Cc1cc(=O)c(O)c(CN2CCOCC2)n1C
assigned-label: Yes
--
molecule: O=c1cc(CN2CCCCC2)n(CCN2CCCCC2)cc1O
assigned-label: No
--
molecule: CCN(CC)CCn1ccc(=O)c(O)c1C
assigned-label: No
--
molecule: Cn1c(CO)cc(=O)c(O)c1CN1CCOCC1
assigned-label: Yes
--
molecule: Cc1cc(=O)c(O)c(CN2CCCCC2)n1C
assigned-label: No
--
molecule: CCc1c(O)c(=O)ccn1CCCn1ccnc1
assigned-label: Yes
--
molecule: CCc1c(O)c(=O)ccn1CCN(C)C
assigned-label: Yes
--
molecule: CCc1c(O)c(=O)ccn1CC
assigned-label: No
--
molecule: CC(O)c1c(O)c(=O)ccn1CCN1CCCCC1 (centres undefined)
assigned-label: No
--
molecule: Cc1c(O)c(=O)ccn1CCN1CCCCC1
assigned-label: No
--
molecule: Cc1c(O)c(=O)ccn1CCN1CCOCC1
assigned-label: Yes

* * *

Property: pKa; scope: individual compounds
assay-explanation: Dissociation constant, pKa corresponding to protonation of the 4-hydroxy group by spectrophotometric titration
Assay type: physicochemical
endpoint-label: pKa

compound: Cc1cc(=O)c(O)c(CN2CCCCC2)n1C
endpoint-label: pKa
val: 2.73

compound: Cc1c(O)c(=O)ccn1CCN1CCOCC1
endpoint-label: pKa
val: 2.64

compound: CCc1c(O)c(=O)ccn1CCCn1ccnc1
endpoint-label: pKa
val: 3.15

compound: O=c1cc(CN2CCCCC2)n(CCN2CCCCC2)cc1O
endpoint-label: pKa
val: 2.04

compound: CCc1c(O)c(=O)ccn1CCN1CCCCC1
endpoint-label: pKa
val: 2.74

compound: CC(O)c1c(O)c(=O)ccn1CCN1CCCCC1 (configuration not stated)
endpoint-label: pKa
val: 2.14

compound: CCc1c(O)c(=O)ccn1CCN(C)C
endpoint-label: pKa
val: 2.68

* * *

Property: D; scope: individual molecules
assay-explanation: Octanol-MOPS buffer distribution coefficient, DC at pH 7.4
Assay type: physicochemical
run-conditions: octanol/water

molecule: CCc1c(O)c(=O)ccn1CCCn1ccnc1
D: 0.42
//
molecule: CCc1c(O)c(=O)ccn1CCN(C)C
D: 0.538
//
molecule: CCc1c(O)c(=O)ccn1CC
D: 1.79
//
molecule: Cn1c(CO)cc(=O)c(O)c1CN1CCCCC1
D: 1.636
//
molecule: Cc1c(O)c(=O)ccn1C [DEFERIPRONE]
D: 0.17
//
molecule: O=c1cc(CN2CCCCC2)n(CCN2CCCCC2)cc1O
D: 26.11
//
molecule: CCc1c(O)c(=O)ccn1CCN1CCCCC1
D: 4.591
//
molecule: Cn1c(CO)cc(=O)c(O)c1CN1CCOCC1
D: 0.17
//
molecule: Cc1c(O)c(=O)ccn1CCCn1ccnc1
D: 0.344
//
molecule: Cc1c(O)c(=O)ccn1CCN1CCOCC1
D: 0.122

* * *

assay-explanation: Dissociation constant, pKa corresponding to dissociation of the 3-hydroxyl group by spectrophotometric titration
Assay type: physicochemical
endpoint-label: pKa

molecule: Cc1c(O)c(=O)ccn1CCN(C)C
val: 9.58
--
molecule: Cn1c(CO)cc(=O)c(O)c1CN1CCOCC1
val: 9.75
--
molecule: CCc1c(O)c(=O)ccn1CCN1CCCCC1
val: 9.7
--
molecule: Cn1c(CO)cc(=O)c(O)c1CN1CCCCC1
val: 10.4
--
molecule: Cn1cc(O)c(=O)cc1CN1CCCCC1
val: 8.86
--
molecule: CC(O)c1c(O)c(=O)ccn1CCN1CCCCC1 (stereo unspecified)
val: 8.73
